The following molecules each carry a recorded GI50 for NCI-H460 (lung).
Reported Property: GI50 (nM)

Molecule	Reported Property	Value Reported
COc1ccc2c(c1)CCCC=C2c1cc(OC)c(OC)c(OC)c1 [Compound 50]	GI50	51
COc1ccc2c(c1Cl)CCCC=C2c1cc(OC)c(OC)c(OC)c1 [Compound 46]	GI50	83.2
COc1cc(C2=CCCCc3c2ccc(OC)c3OC)cc(OC)c1OC [Compound 58]	GI50	479
COc1cc(C2=CCCCc3c2cc(OC)c(OC)c3O)cc(OC)c1OC [Compound 36]	GI50	25900

Cited source: patent US20120130129A1
